Reference for the values: PubChem BioAssay (NCI)

GI50 tested on U251 CNS: recorded values

Reference set (4 entries):
O=S(=O)(NC1=NCCN1C(=S)SN1CCn2c1nsc2=S)c1ccc(Oc2ccccc2)cc1	> 100000 nM
COc1cccc2c1C(=O)c1c(O)c3c(c(O)c1C2=O)C[C@@](O)(C(=O)CO)CC3OC1CC(N)C(OC2CCCCO2)C(C)O1 (some centres undefined)	8.12 nM
Cc1ccc(C[As+](c2ccccc2)(c2ccccc2)c2ccccc2)cc1	580 nM
COc1cc(-c2nn(-c3ccc(NC(=O)Nc4cc(C(F)(F)F)cc(C(F)(F)F)c4)cc3)cc2-c2ccncc2)ccc1Cl	1800 nM

QUERY: Name the recorded GI50 of the item `CN(C)c1ccc(/C=C(\C#N)c2cc3ccccc3[nH]2)cc1` in your answer.
RESULT: 913 nM

QUERY: Name the recorded GI50 of the item `O=C(/C=C/c1ccccc1)c1cccc2ccccc12` in your answer.
RESULT: 2140 nM

QUERY: Name the recorded GI50 of the item `COc1ccc2c(c1)C(=Nc1ccc(F)c(Cl)c1)c1c-2c(Nc2ccc(F)c(Cl)c2)nc2ccccc12` in your answer.
RESULT: 18800 nM

QUERY: Name the recorded GI50 of the item `COc1ccc(OC)c(Nc2nc3nonc3nc2Nc2cccc(Br)c2)c1` in your answer.
RESULT: 577 nM

QUERY: Name the recorded GI50 of the item `COc1ccc(Cn2cc(COc3cc(/C=C/C(=O)c4cc(OC)c(OC)c(OC)c4)ccc3OC)nn2)cc1` in your answer.
RESULT: 3800 nM
